Test system: PAK2;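 note: KINOMEscan kinase panel screen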
test.settings: concentration: 1 μM, replicates: in singlicate; n = 1
# maps each entry to its %Inh
I'd appreciate it if you wrote the number followed by its unit.

CCc1nc(-c2cccc(N(C)S(=O)(=O)c3ccccc3)c2)c(-c2ccnc(Nc3ccc(N4CCN(C(C)=O)CC4)nc3)n2)s1 [GSK1645895]: 0%
CC(C)(C)c1ccc(-n2cnc3c(N)ncnc32)cc1 [SKF-97263]: 0%
O=c1cc(N2CCOCC2)nc2n(Cc3cccc(Cl)c3)ccn12 [GSK2296823]: 10%
c1ccc(-c2ccc3c(-c4ccnc(Nc5ccc6c(c5)OCCO6)n4)cnn3n2)cc1 [GW818941]: 28%
C[C@@H]1CCN(C(=O)CO)C[C@@H]1N(C)c1ncnc2[nH]ccc12: 0%
CS(=O)(=O)CCNCc1nc(-c2ccc3ncnc(Nc4ccc(OCc5cccc(F)c5)c(Cl)c4)c3c2)cs1.Cl [GW583340]: 9%

Field request: %Inh | item: COC(=O)c1cccc(NC(=O)NCCNc2ccnc(Nc3ccc(F)cc3)n2)c1 [GSK1379883]
0%

Which %Inh value is on record for Nc1nc(-c2ccc3c(N)n[nH]c3c2)cc(N2CCC[C@@H](C(=O)Nc3ccccc3)C2)n1.O=C(O)C(F)(F)F.O=C(O)C(F)(F)F [GSK2288359] ?
0%
